# ASSAY_DETAILS: in vitro
# CONDITION_CONTEXT: rat, liver microsomes
READOUT_NAME: microsomal CLint at 0.5 h, 0.5 µM (µL/min/mg)

Recorded microsomal CLint at 0.5 h, 0.5 µM, per entry:
* Cn1c(SCCCN2CC[C@]3(C[C@@H]3c3ccc(C(F)(F)F)cc3)C2)nnc1-c1cccc(C(N)=O)c1 | 92
* Cc1ncoc1-c1nnc(SCCCN2CC[C@@]3(C[C@H]3c3ccc(F)cc3C(F)(F)F)C2)n1C (single isomer, unassigned; enantiomer 2) | 151
* Cn1c(SCCCN2CC[C@]3(C[C@@H]3c3ccc(C(F)(F)F)cc3)C2)nnc1-c1cccc(-c2ncco2)c1 | 100

[A] Cc1nc(C(N)=O)ccc1-c1nnc(SCCCN2CC[C@]3(C[C@@H]3c3ccc(C(F)(F)F)cc3)C2)n1C
[B] Cn1c(SCCCN2CC[C@]3(C[C@@H]3c3ccc(C(F)(F)F)cc3F)C2)nnc1-c1cccnc1
[C] Cn1c(SCCCN2CC[C@]3(C[C@@H]3c3ccc(C(F)(F)F)cc3)C2)nnc1-c1ccc(CC(N)=O)cc1
Query: Put the items in sequence by microsomal CLint at 0.5 h, 0.5 µM, from largest down. Provide the ranking by listing each label in its place in the requested order.
Result: B, A, C

[1] Cn1c(SCCCN2CC[C@]3(C[C@@H]3c3ccc(C(F)(F)F)cc3)C2)nnc1-c1ccc(C(N)=O)nc1
[2] Cc1ccc(-c2nnc(SCCCN3CC[C@]4(C[C@@H]4c4ccc(C(F)(F)F)cc4)C3)n2C)c(C)n1
Query: Select one. Lower microsomal CLint at 0.5 h, 0.5 µM: 1 or 2 Please indicate the selected item by its label.
Result: 1
(1: 29 µL/min/mg, 2: 98 µL/min/mg)

* * *

# ASSAY_DETAILS: in vitro
# CONDITION_CONTEXT: human, liver microsomes
READOUT_NAME: microsomal CLint at 0.5 h, 0.5 µM (µL/min/mg)

* Cn1c(SCCCN2CC[C@]3(C[C@@H]3c3ccc(C(F)(F)F)cc3)C2)nnc1C1=CCC(=O)N=C1 (stereo in doubt) | 28
* Cc1ncoc1-c1nnc(SCCCN2CC[C@@]3(C[C@H]3c3ccc(F)cc3)C2)n1C | 37
* Cc1ncoc1-c1nnc(SCCCN2CC[C@]3(C[C@@H]3c3ccc(C(F)(F)F)cc3)C2)n1C | 86

[A] Cn1c(SCCCN2CC[C@]3(C[C@@H]3c3ccc(C(F)(F)F)cc3)C2)nnc1C1CC2CCC(C1)O2 (single isomer, unassigned; enantiomer 1)
[B] Cn1c(SCCCN2CC[C@]3(C[C@@H]3c3ccc(C(F)(F)F)cc3)C2)nnc1C1CCNC(=O)C1 (single isomer, unassigned)
[C] Cn1c(SCCCN2CC[C@]3(C[C@@H]3c3ccc(C(F)(F)F)cc3)C2)nnc1-c1cccc(C(N)=O)c1
[D] Cc1ncccc1-c1nnc(SCCCN2CC[C@]3(C[C@@H]3c3ccc(C(F)(F)F)cc3)C2)n1C
Query: Put the items in sequence by microsomal CLint at 0.5 h, 0.5 µM, from largest down. Provide the ranking by listing each label in its place in the requested order.
Result: C, D, A, B
(C: 187 µL/min/mg, D: 80 µL/min/mg, A: 50 µL/min/mg, B: 25 µL/min/mg)

[A] Cn1c(SCCCN2CC[C@]3(C[C@@H]3c3ccc(C(F)(F)F)cc3)C2)nnc1-c1ccc(=O)n(C)c1
[B] Cc1ncoc1-c1nnc(SCCCN2CC[C@]3(C[C@H]3c3ccc(C(F)(F)F)cc3)C2)n1C
[C] Cc1ccc(-c2nnc(SCCCN3CC[C@]4(C[C@@H]4c4ccc(C(F)(F)F)cc4)C3)n2C)c(C)n1
Query: Put the items in sequence by microsomal CLint at 0.5 h, 0.5 µM, from largest down. Provide the ranking by listing each label in its place in the requested order.
Result: C, A, B
(C: 299 µL/min/mg, A: 41 µL/min/mg, B: 22 µL/min/mg)

* * *

# ASSAY_DETAILS: in vitro
# CONDITION_CONTEXT: human, liver microsomes
READOUT_NAME: microsomal CLint at 0.5 h, 0.5 µM (µL/min/mg)

[A] Cn1c(SCCCN2CC[C@]3(C[C@@H]3c3ccc(C(F)(F)F)cc3)C2)nnc1-c1ccc(CC(N)=O)cc1
[B] Cn1c(SCCCN2CC[C@]3(C[C@@H]3c3ccc(C(F)(F)F)cc3)C2)nnc1-c1ccc(C(N)=O)nc1
Query: Select one. Lower microsomal CLint at 0.5 h, 0.5 µM: A or B Please indicate the selected item by its label.
Result: A
(A: 58 µL/min/mg, B: 106 µL/min/mg)

* * *

# ASSAY_DETAILS: in vitro
# CONDITION_CONTEXT: human, liver microsomes
READOUT_NAME: microsomal CLint at 0.5 h, 0.5 µM (µL/min/mg)

Recorded microsomal CLint at 0.5 h, 0.5 µM, per entry:
* Cn1c(SCCCN2CC[C@]3(C[C@@H]3c3ccc(C(F)(F)F)cc3)C2)nnc1C1CCOCC1 | 34
* Cc1ncoc1-c1nnc(SCCCN2CC[C@@]3(C[C@H]3c3ccc(F)cc3C(F)(F)F)C2)n1C (single isomer, unassigned; enantiomer 2) | 320

[I] Cc1ncoc1-c1nnc(SCCCN2CC[C@@]3(C[C@H]3c3ccc(F)cc3F)C2)n1C
[II] Cn1c(SCCCN2CC[C@]3(C[C@@H]3c3ccc(C(F)(F)F)cc3)C2)nnc1-c1cccc(-c2ncco2)c1
Query: Select one. Lower microsomal CLint at 0.5 h, 0.5 µM: I or II Please indicate the selected item by its label.
Result: I
(I: 53 µL/min/mg, II: 447 µL/min/mg)

Source: ChEMBL document CHEMBL3853329
